# Measured Target: T1, P-selectin:immunoglobulin fusion protein (human, UniProt P16109 42-321, limits assumed)
# T1 construct: domain: lectin, EGF-related, and first two short consensus repeat related domains; Made in COS cells; captured from supernatant on wells coated with goat anti-human IgG Fc; also called soluble P-selectin; P-selectin Ig chimera; not shown: hinge, CH2, and CH3 domains of human IgG1
# T1 sequence (looked up): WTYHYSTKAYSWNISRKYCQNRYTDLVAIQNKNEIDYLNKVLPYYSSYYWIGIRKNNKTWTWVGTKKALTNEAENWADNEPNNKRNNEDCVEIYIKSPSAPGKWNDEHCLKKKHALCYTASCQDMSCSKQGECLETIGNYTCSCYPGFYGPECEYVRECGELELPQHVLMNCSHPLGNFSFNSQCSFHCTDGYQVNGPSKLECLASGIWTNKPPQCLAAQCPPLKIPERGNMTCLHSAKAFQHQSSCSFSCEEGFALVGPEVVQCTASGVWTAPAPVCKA
# Assay Overview: adhesion of 51Cr-labelled transfected COS cells to immobilized P-selectin:Ig

>  <Binder>
PSGL-1 residues 38-57 with threonines converted to alanines, on the CD43 repeat elements and transmembrane domain (ligand, not shown: small tags and cut ends) RDRRQAAEYEYLDYDFLPEAITTNSPETSSRTSGAPVTTAASSLETSRGTSGPPLTMATVSLETSKGTSGPPVTMATDSLETSTGTTGPPVTMTTGSLEPSSGASGPQVSS

>  <binding result>
binds

$$$$
>  <Binder>
PSGL-1-NH2/CD43 rep. (ligand, not shown: small tags and cut ends, range mature amino terminus-117; Cotransfected with FTVIIh; also called PSGL-1-NH2/CD43 repeats; PSGL-1 apical domain on the CD43 repeat region) LQLWDTWADEAEKALGPLLARDRRQATEYEYLDYDFLPETEPPEMLRNSTDTTPLTGPGTPESTTVEPAARRSTGLDAGGAVTELTTELANMGNLSTDSAEFITTNSPETSSRTSGAPVTTAASSLETSRGTSGPPLTMATVSLETSKGTSGPPVTMATDSLETSTGTTGPPVTMTTGSLEPSSGASGPQVSS

>  <binding result>
binds

$$$$
>  <Binder>
PSGL-1 residues 38-57 (wildtype) appended to the CD43 mucin core (ligand, not shown: small tags and cut ends, as the filing concludes: sulfated tyrosines at 46, 48 and 51; sLe^x on threonines 44 and 57, Cotransfected with FTVII) RDRRQATEYEYLDYDFLPETITTNSPETSSRTSGAPVTTAASSLETSRGTSGPPLTMATVSLETSKGTSGPPVTMATDSLETSTGTTGPPVTMTTGSLEPSSGASGPQVSS

>  <binding result>
binds

$$$$
